Assay Procedure: Cmax in Wistar rat at 3 mg/kg, po by LC-MS/MS analysis
Assay type: ADME, organism-based
Parameters: dose 3 mg/kg, route oral
Condition Summary: in vivo
Property Label: Cmax (ng/mL)
The reply should contain only the number, in ng/mL.

Looking up O=C(Nc1ccc(Cl)cc1B(O)O)c1ccc(Oc2ccc(C(F)(F)F)cc2)nc1 , I see its Cmax listed as 3350

---

Assay Procedure: AUC (0 to 7 hrs) in Wistar rat at 3 mg/kg, po by LC-MS/MS analysis
Assay type: ADME, organism-based
Set-up: dose 3 mg/kg, time < 7 hr, route oral
Condition Summary: in vivo
Property Label: AUC(0-t) at 7 h
Please state the number and follow it with the unit.

Looking up O=C(Nc1ccc(Cl)cc1B(O)O)c1ccc(Oc2ccc(C(F)(F)F)cc2)nc1 , I see its AUC(0-t) at 7 h listed as 19600 ng·h/mL
